The reported measurements were obtained from the supplement of paper PMC10037445.

tested on: RAW-Dual; assay: NF-kB SEAP reporter activity, fold change vs agonist alone; cytotoxicity flag (confluency mask): not cytotoxic; higher = enhanced NF-kB activity; conditions: agonist: Pam2CSK4 (TLR2/6) 0.1 ug/mL
Whole data set: some 2,900 compounds, median “NF-kB SEAP reporter activity, fold change vs agonist alone” near 0.99, cut for the highest 2% near 2.6. Only a selection was taken, and the highest values are over-represented in it overall.

compound	NF-kB SEAP reporter activity
Cc1nn(CC(F)(F)F)cc1Nc1ncc(Br)c(NCc2ccc(S(N)(=O)=O)cc2)n1 (library stock concentration (final ~1000-fold dilution): 10 mM)	1.17
O=C(NC1=CC(=O)[C@H]2O[C@H]2[C@H]1O)c1ccccc1O (library stock concentration (final ~1000-fold dilution): 10 mM)	0.806
OCC1OC(c2ccc(F)c(Cc3cc4ccccc4s3)c2)C(O)C(O)C1O (stereo not given) (library stock concentration (final ~1000-fold dilution): 10 mM)	1.15
CC(=O)OC1CCC2(C)C(=CCC3C2CCC2(C)C(c4cccnc4)=CCC32)C1 (stereo not given) (library stock concentration (final ~1000-fold dilution): 10 mM)	0.97
CC1c2cccc(O)c2C(=O)C2=C(O)C3(O)C(=O)C(C(N)=O)=C(O)C(N(C)C)C3C(O)C21 (stereo not given) (library stock concentration (final ~1000-fold dilution): 10 mM)	0.896

---

tested on: RAW-Dual; assay: NF-kB SEAP reporter activity, fold change vs agonist alone; cytotoxicity flag (confluency mask): not cytotoxic; higher = enhanced NF-kB activity; conditions: agonist: LPS (TLR4) 0.1 ug/mL
The full ranking holds about 2,900 compounds; the median of “NF-kB SEAP reporter activity, fold change vs agonist alone” is about 0.99, and the highest 2% start at about 2.6. The sample as a whole holds a higher share of the highest values than the screen did.
Entries annotated with measured NF-kB SEAP reporter activity

compound	NF-kB SEAP reporter activity
Cc1[nH]c2ccccc2c1C1=C(NCCc2ccc(F)cc2)C(=O)N(C)C1=O (library stock concentration (final ~1000-fold dilution): 10 mM)	1.23
Nc1ccn(C2CCC(CO)O2)c(=O)n1 (stereo not drawn) (library stock concentration (final ~1000-fold dilution): 10 mM)	0.913
CC(=O)OC12COC1CC(O)C1(C)C(=O)C(O)C3=C(C)C(OC(=O)C(O)C(NC(=O)OC(C)(C)C)c4ccccc4)CC(O)(C(OC(=O)c4ccccc4)C21)C3(C)C (stereo not drawn) (library stock concentration (final ~1000-fold dilution): 10 mM)	1.2

---

Below, each entry is listed alongside its reported NF-kB SEAP reporter activity.
test system: RAW-Dual; assay: NF-kB SEAP reporter activity, fold change vs agonist alone; cytotoxicity flag (confluency mask): not cytotoxic; higher = enhanced NF-kB activity; settings: agonist: Pam2CSK4 (TLR2/6) 0.1 ug/mL
Over roughly 2,900 compounds, “NF-kB SEAP reporter activity, fold change vs agonist alone” has its median near 0.99; the highest 2% begin near 2.6. The sample as a whole holds a higher share of the highest values than the screen did.

molecule	NF-kB SEAP reporter activity
CCN(CC)CCNC(=O)c1c(C)[nH]c(/C=C2\C(=O)Nc3ccc(F)cc32)c1C.O=C(O)CC(O)C(=O)O (library stock concentration (final ~1000-fold dilution): 10 mM)	0.27
Cn1ncc(Cl)c1-c1cc(C(=O)NC(CN)Cc2ccc(F)c(F)c2)oc1Cl (stereo not given) (library stock concentration (final ~1000-fold dilution): 10 mM)	1.07
CC(C)c1nc(N(C)S(C)(=O)=O)nc(-c2ccc(F)cc2)c1C=CC(O)CC(O)CC(=O)O (stereo not given) (library stock concentration (final ~1000-fold dilution): 10 mM)	1.01
CC(=O)OC12COC1CC(O)C1(C)C(=O)C(O)C3=C(C)C(OC(=O)C(O)C(NC(=O)OC(C)(C)C)c4ccccc4)CC(O)(C(OC(=O)c4ccccc4)C21)C3(C)C.O.O.O (stereo not given) (library stock concentration (final ~1000-fold dilution): 10 mM)	0.697
COCCc1ccc(OCC(O)CNC(C)C)cc1.COCCc1ccc(OCC(O)CNC(C)C)cc1.O=C(O)CCC(=O)O (stereo not given) (library stock concentration (final ~1000-fold dilution): 10 mM)	0.839
C[N+]1(C)CCC[C@H]1C(=O)O (library stock concentration (final ~1000-fold dilution): 10 mM)	1.16
COC1/C=C/OC2(C)Oc3c(C)c(O)c4c(O)c(c(/C=N/N5CCN(C)CC5)c(O)c4c3C2=O)NC(=O)/C(C)=C/C=C/C(C)C(O)C(C)C(O)C(C)C(OC(C)=O)C1C (stereo not given) (library stock concentration (final ~1000-fold dilution): 10 mM)	0.906
CNC1CN(c2ccc3c(=O)c(C(=O)O)cn(-c4nccs4)c3n2)CC1OC.Cl (stereo not given) (library stock concentration (final ~1000-fold dilution): 2 mM)	1.32
COc1ccc(CC(N)C(=O)NC2C(CO)OC(n3cnc4c(N(C)C)ncnc43)C2O)cc1.Cl.Cl (stereo not given) (library stock concentration (final ~1000-fold dilution): 10 mM)	0.13
CC(C)c1nc(N(C)S(C)(=O)=O)nc(-c2ccc(F)cc2)c1/C=C/C(O)CC(O)CC(=O)O (stereo not given) (library stock concentration (final ~1000-fold dilution): 10 mM)	1.21
